# maps each entry to its pIC50
- Study system: MARK3 (Homo sapiens)
- Construct: purchased University of Dundee
- Sequence (P27448 whole entry, species assumed): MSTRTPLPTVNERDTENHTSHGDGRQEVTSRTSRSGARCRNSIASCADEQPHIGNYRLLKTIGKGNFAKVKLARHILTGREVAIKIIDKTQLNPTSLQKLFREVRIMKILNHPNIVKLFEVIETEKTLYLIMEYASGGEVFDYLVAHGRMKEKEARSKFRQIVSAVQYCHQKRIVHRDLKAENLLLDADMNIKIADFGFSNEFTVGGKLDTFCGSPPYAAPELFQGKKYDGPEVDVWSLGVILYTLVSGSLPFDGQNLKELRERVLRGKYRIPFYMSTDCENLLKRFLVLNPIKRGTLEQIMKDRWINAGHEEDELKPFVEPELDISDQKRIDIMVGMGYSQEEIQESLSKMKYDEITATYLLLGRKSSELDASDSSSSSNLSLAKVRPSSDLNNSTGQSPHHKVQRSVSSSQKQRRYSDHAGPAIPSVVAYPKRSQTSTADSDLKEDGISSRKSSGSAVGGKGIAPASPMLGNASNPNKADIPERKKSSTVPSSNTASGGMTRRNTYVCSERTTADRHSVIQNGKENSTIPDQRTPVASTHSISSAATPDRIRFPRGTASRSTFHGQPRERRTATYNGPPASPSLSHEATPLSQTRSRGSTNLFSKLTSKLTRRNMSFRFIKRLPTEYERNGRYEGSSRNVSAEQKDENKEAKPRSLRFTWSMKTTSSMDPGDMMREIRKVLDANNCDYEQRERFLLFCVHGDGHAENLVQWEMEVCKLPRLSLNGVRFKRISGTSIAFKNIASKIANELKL
- Method notes: MARK 3 Assay (HTRF, Cdc25C biotinylated peptide substrate)
- Assay type: biochemical
- Measurement parameters: recombinant MARK3 enzyme, 10 μM ATP, 1 μM peptide substrate
pIC50: −log10 of the molar value.

Q: For the compound O=C(Nc1ncn2c(C(F)(F)F)csc12)c1ccc(OCCN2CCCCC2)cc1 [Example 12] , give its reported pIC50.
Ans: > 7.00

Q: For the compound CN1CCN(c2ccc(C(=O)Nc3ncn4c(C(F)(F)F)csc34)cc2)CC1 [Example 8] , give its reported pIC50.
Ans: > 7.00

Q: For the compound O=C(Nc1ncn2c(C(F)(F)F)csc12)c1ccc(CO)cc1 [Example 14] , give its reported pIC50.
Ans: 6.30 to 7.00
